Data credit: patent US20210206841A1

- measured_on: T1, tail-chimeric peptide IhfA3-IhfB2NTHI (nontypeable Haemophilus influenzae …)
- T1 construct: also called IHF(NTHI) tail chimeric peptide; IHFNTHI tail chimeric peptide
- T1 peptide: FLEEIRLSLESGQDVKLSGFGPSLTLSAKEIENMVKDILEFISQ
- test_details: SPR Biacore 3000, peptide immobilized, HuMab as analyte
parameter: kon (M⁻¹ s⁻¹)

binder	value_observed
humanized anti-tail monoclonal antibody, heavy chain SEQ ID NO: 5 and light chain SEQ ID NO: 12 (antibody, V domains shown, also called H10214 (11E7.C7 Humanized HC2) + L10215 (11E7.C7 Humanized LC3)) VH: EVQLVESGGGLVKPGGSLRLSCAASGFTFSRYGMSWVRQAPGKGLEWVSTISSGGSYTYYTDSVKGRFTISRDNAKNSLYLQMNSLRAEDTAVYYCERHGGDGYWYFDVWGQGTMVTVSS VL: DIVMTQSPATLSLSPGERATLSCRASQDISNYLNWYQQKPGQAVRLLIYYTSRLHSGIPARFSGSGSGTDYTLTISSLEPEDFAVYFCQQGNPLRTFGGGTKVEIKR	85000
humanized anti-tail monoclonal antibody, heavy chain SEQ ID NO: 6 and light chain SEQ ID NO: 12 (antibody, V domains shown, also called H10215 (11E7.C7 Humanized HC3) + L10215 (11E7.C7 Humanized LC3)) VH: EVQLVESGGGLVQPGRSLRLSCTASGFTFSRYGMSWVRQAPGKGLEWVATISSGGSYTYYTDSVKGRFTISRDNAKNILYLQMNSLKTEDTAVYYCERHGGDGYWYFDVWGQGTMVTVSS VL: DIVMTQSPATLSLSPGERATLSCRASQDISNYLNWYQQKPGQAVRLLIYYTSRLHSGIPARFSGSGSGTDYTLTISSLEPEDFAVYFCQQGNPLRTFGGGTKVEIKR	250000
